target.system: T1, human IL-23R endogenously expressed on DB cells (human, UniProt Q5VWK5 24-629)
T1 sequence (looked up): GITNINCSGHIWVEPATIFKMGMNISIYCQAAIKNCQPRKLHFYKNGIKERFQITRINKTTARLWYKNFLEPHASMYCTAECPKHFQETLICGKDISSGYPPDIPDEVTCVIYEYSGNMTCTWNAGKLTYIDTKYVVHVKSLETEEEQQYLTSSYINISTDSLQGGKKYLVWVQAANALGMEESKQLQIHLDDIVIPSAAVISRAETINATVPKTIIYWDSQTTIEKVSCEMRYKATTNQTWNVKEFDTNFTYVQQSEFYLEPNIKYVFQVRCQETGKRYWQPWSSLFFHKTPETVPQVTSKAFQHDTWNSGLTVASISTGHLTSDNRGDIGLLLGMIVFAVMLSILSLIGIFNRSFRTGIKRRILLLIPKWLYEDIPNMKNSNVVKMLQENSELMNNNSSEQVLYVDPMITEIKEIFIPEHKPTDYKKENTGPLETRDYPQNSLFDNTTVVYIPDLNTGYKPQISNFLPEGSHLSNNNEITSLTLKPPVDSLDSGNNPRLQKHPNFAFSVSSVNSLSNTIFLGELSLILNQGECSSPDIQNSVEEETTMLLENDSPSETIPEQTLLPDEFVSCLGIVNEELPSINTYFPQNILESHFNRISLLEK
assay.remarks: cell-based or functional assay
*1 amine or outer side, *2 acyl side, *3 side chain or, on linkers, in order; H or OH if unused. Bridges are numbered along the chain shown (N, C = ends). Where no end group is shown, it is not given here. [ ]: non-standard residue; d: D form. The star is where a group is joined. 4‑Aminomethyl‑phenylacetyl = 4-aminomethyl-phenylacetyl unit, its amine closes the lactam, O=C(Cc1ccc(CN[*:1])cc1)[*:2]; αMeAla(3-pyridyl) = C[C@](N)(Cc1cccnc1)C(=O)O; dGly‑CF3 = O=C([C@H](N[*:1])C(F)(F)F)[*:2]; NH(2-(3-pyridyl)ethyl) = c1cncc(CCN*)c1; 2Nal = N[C@@H](Cc1ccc2ccccc2c1)C(=O)O; AEF = NCCOc1ccc(C[C@H](N)C(=O)O)cc1; 3Pal = N[C@@H](Cc1cccnc1)C(=O)O; αMeL = CC(C)C[C@](C)(N)C(=O)O; Dab = NCC[C@H](N)C(=O)O
property.label: hIL-23 (pSTAT3) antagonist IC50 (nM)
# value in nM; strip the unit string

Item Ac-KSCWQCW[2Nal]LER-NH2 (lactam 1-10; bridge 3-6; not fully specified (bridges); printed as [Ac]-K(1c)SC(2a)WQC(2a)W[2-Nal]LE(1c)R-[NH2]) [Ref 18] has what recorded hIL-23 (pSTAT3) antagonist IC50? 18

Item [4‑Aminomethyl‑phenylacetyl]SCWQC[AEF][2Nal][αMeL]ER-NH2 (lactam N-10; bridge 3-6; not fully specified (bridges); printed as [4-Aminomethyl-phenylacetyl](1c)*SC(2a)WQC(2a)[Y(2-aminoethoxy)][2-Nal][2-Me-Leu]E(1c)R-[NH2], Y = Y(2-aminoethoxy)) [Ref 52] has what recorded hIL-23 (pSTAT3) antagonist IC50? 7.8

Item [4‑Aminomethyl‑phenylacetyl]SEWQ[Dab][AEF][2Nal][αMeL]E[dGly‑CF3][3Pal]-NH2 (lactam (positions not given here); lactam 3-6; not fully specified (bridges)) [Compound 16] has what recorded hIL-23 (pSTAT3) antagonist IC50? 1.4

Item [4‑Aminomethyl‑phenylacetyl]SEWQ[Dab][AEF][2Nal][αMeL]E[Dab]-{NH(2-(3-pyridyl)ethyl)} (lactam N-10, 3-6; SMILES CC(C)C[C@]1(C)NC(=O)[C@H](Cc2ccc3ccccc3c2)NC(=O)[C@H](Cc2ccc(OCCN)cc2)NC(=O)[C@@H]2CCNC(=O)CC[C@H](NC(=O)[C@H](CO)NC(=O)Cc3ccc(cc3)CNC(=O)CC[C@@H](C(=O)N[C@@H](CCN)C(=O)NCCc3cccnc3)NC1=O)C(=O)N[C@@H](Cc1c[nH]c3ccccc13)C(=O)N[C@@H](CCC(N)=O)C(=O)N2) [Compound 7] has what recorded hIL-23 (pSTAT3) antagonist IC50? 0.13

Item [4‑Aminomethyl‑phenylacetyl]SCWQC[AEF][2Nal][αMeL]ES-NH2 (lactam (positions not given here); bridge 3-6; not fully specified (bridges); printed as [4-Aminomethyl-phenylacetyl](1c)*SC(2a)WQC(2a)[Y(2-aminoethoxy)][2-Nal][2-Me-Leu]E(1c)S-[NH2], Y = Y(2-aminoethoxy)) [Ref 81] has what recorded hIL-23 (pSTAT3) antagonist IC50? 21

Item [4‑Aminomethyl‑phenylacetyl]SEWQ[Dab][AEF][2Nal][αMeL]E[Dab][αMeAla(3-pyridyl)]-NH2 (lactam N-10, 3-6; SMILES CC(C)C[C@]1(C)NC(=O)[C@H](Cc2ccc3ccccc3c2)NC(=O)[C@H](Cc2ccc(OCCN)cc2)NC(=O)[C@@H]2CCNC(=O)CC[C@H](NC(=O)[C@H](CO)NC(=O)Cc3ccc(cc3)CNC(=O)CC[C@@H](C(=O)N[C@@H](CCN)C(=O)N[C@@](C)(Cc3cccnc3)C(N)=O)NC1=O)C(=O)N[C@@H](Cc1c[nH]c3ccccc13)C(=O)N[C@@H](CCC(N)=O)C(=O)N2) [Compound 3] has what recorded hIL-23 (pSTAT3) antagonist IC50? 1.7

Item [4‑Aminomethyl‑phenylacetyl]SEWQ[Dab][AEF][2Nal][αMeL]E[Dab]-NH2 (lactam (positions not given here); lactam 3-6; not fully specified (bridges); printed as [4-Aminomethyl-phenylacetyl](1c)*SE(2c)WQ[Dab](2c)[Y(2-aminoethoxy)][2-Nal][2-Me-Leu]E(1c)[Dab]-[NH2]) [Ref 125] has what recorded hIL-23 (pSTAT3) antagonist IC50? 21

Where do the numbers come from? From patent EP4471049A1.
